target: M-phase inducer phosphatase 2 (Homo sapiens, UniProt P30305); test: Inhibition of 6-His-N-terminal tagged human CDC-25B isoform 3 catalytic domain expressed in Escherichia coli BL21 (DE3) cells assessed as pNP formation using pNPP as substrate incubated for 15 mins prior to substrate addition by plate reader analysis
Sequence (P30305 whole entry, the tested form may be a part, canonical isoform): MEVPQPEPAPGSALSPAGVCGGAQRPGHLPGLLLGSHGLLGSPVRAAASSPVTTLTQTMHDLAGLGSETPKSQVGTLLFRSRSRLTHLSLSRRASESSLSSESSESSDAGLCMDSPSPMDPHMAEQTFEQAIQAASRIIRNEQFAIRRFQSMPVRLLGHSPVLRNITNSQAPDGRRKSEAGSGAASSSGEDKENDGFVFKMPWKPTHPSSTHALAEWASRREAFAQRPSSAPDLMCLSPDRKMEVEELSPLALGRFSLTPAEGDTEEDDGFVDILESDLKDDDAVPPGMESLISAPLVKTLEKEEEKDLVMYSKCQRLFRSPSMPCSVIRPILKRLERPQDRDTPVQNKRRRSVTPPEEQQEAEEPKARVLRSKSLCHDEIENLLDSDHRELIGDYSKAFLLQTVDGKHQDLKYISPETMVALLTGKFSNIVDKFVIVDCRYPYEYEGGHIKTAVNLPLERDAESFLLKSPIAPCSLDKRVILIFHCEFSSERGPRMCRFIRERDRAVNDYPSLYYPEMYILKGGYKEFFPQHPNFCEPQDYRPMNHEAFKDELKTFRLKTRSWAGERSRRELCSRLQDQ
pIC50: −log10 of the molar value.
The following molecules are listed with their measured pIC50 values.
PARAMETER: pIC50

>  <MOLECULE>
CCCCCCCCCCCCCCCC(=O)C1=C(O)CC(CO)OC1=O (stereo unspecified)

>  <PARAMETER>
pIC50

>  <BOUND SIGN>
=

>  <TEST VALUE>
4.87

$$$$
>  <MOLECULE>
CCCCCCCCCCCCCCCC(=O)C1=C(O)C(COC(C)=O)OC1=O (stereo unspecified)

>  <PARAMETER>
pIC50

>  <BOUND SIGN>
=

>  <TEST VALUE>
4.97

$$$$
>  <MOLECULE>
CCCCCCCCCCCCCCCC(=O)OC1=CC(=O)OC(COCc2ccccc2)C1 (stereo unspecified)

>  <PARAMETER>
pIC50

>  <BOUND SIGN>
<

>  <TEST VALUE>
4.00

$$$$
>  <MOLECULE>
CCCCCCCCCCCCCCCC(=O)C1=C(O)C(COC(=O)c2ccc(C(=O)c3ccccc3)cc2)OC1=O (stereo unspecified)

>  <PARAMETER>
pIC50

>  <BOUND SIGN>
=

>  <TEST VALUE>
5.23

$$$$
>  <MOLECULE>
CCCCCCCCCCCCCCCCCC(=O)C1=C(O)OC(C)(C)OC1=O

>  <PARAMETER>
pIC50

>  <BOUND SIGN>
=

>  <TEST VALUE>
5.19

$$$$
>  <MOLECULE>
CCCCCCCCCCCCCCCC(=O)C1=C(O)C(COC(=O)c2ccccc2C(=O)c2ccccc2)OC1=O (stereo unspecified)

>  <PARAMETER>
pIC50

>  <BOUND SIGN>
=

>  <TEST VALUE>
5.20

$$$$
>  <MOLECULE>
CCCCCCCCCCCCCCCC(=O)C1=C(O)C(CO)OC1=O (racemic)

>  <PARAMETER>
pIC50

>  <BOUND SIGN>
=

>  <TEST VALUE>
4.91

$$$$
>  <MOLECULE>
CCCCCCCCCCCCCCCC(=O)C1=C(O)OC(CC)(CC)OC1=O

>  <PARAMETER>
pIC50

>  <BOUND SIGN>
=

>  <TEST VALUE>
5.34

$$$$
>  <MOLECULE>
CCCCCCCCCCCCCCCC(=O)C1=C(O)OC(C)(CC)OC1=O (stereo unspecified)

>  <PARAMETER>
pIC50

>  <BOUND SIGN>
=

>  <TEST VALUE>
5.26

$$$$
>  <MOLECULE>
CCCCCCCCCCCCCCCC(=O)C1=C(O)C(COS(C)(=O)=O)OC1=O (stereo unspecified)

>  <PARAMETER>
pIC50

>  <BOUND SIGN>
=

>  <TEST VALUE>
5.10

$$$$
>  <MOLECULE>
CC(C)C(=O)C1=C(O)OC(C)(C)OC1=O

>  <PARAMETER>
pIC50

>  <BOUND SIGN>
<

>  <TEST VALUE>
4.00

$$$$
>  <MOLECULE>
CCCCCCCCCCCCCCCC(=O)C1=C(O)OC(C)(C)OC1=O

>  <PARAMETER>
pIC50

>  <BOUND SIGN>
=

>  <TEST VALUE>
4.86

$$$$
>  <MOLECULE>
CCCCCCCCCC(=O)C1=C(O)OC(C)(C)OC1=O

>  <PARAMETER>
pIC50

>  <BOUND SIGN>
<

>  <TEST VALUE>
4.00

$$$$
>  <MOLECULE>
C=C1OC(=O)C(C(=O)CCCCCCCCCCCCCCC)=C1O

>  <PARAMETER>
pIC50

>  <BOUND SIGN>
=

>  <TEST VALUE>
5.13

$$$$
>  <MOLECULE>
CCCCCCCCCCCCCCCC(=O)C1=C(O)CC(COCc2ccccc2)OC1=O (stereo unspecified)

>  <PARAMETER>
pIC50

>  <BOUND SIGN>
=

>  <TEST VALUE>
5.14

$$$$
>  <MOLECULE>
CCCCCCCCCCCCCCCC(=O)C1=C(O)OC2(CCCC2)OC1=O

>  <PARAMETER>
pIC50

>  <BOUND SIGN>
=

>  <TEST VALUE>
5.15

$$$$

* * *

assay: Retardation factor of the compound using Hexanes:AcOEt (2:1) as solvent system by column chromatography; format: physicochemical

>  <COMPOUND>
CCCCCCCCCC(=O)C1=C(O)OC(C)(C)OC1=O

>  <Rf>
0.49

$$$$
>  <COMPOUND>
CCCCCCCCCCCCCCCC(=O)C1=C(O)OC2(CCCC2)OC1=O

>  <Rf>
0.59

$$$$
>  <COMPOUND>
CCCCCCCCCCCCCCCC(=O)C1=C(O)OC(C)(CC)OC1=O (centres undefined)

>  <Rf>
0.42

$$$$
>  <COMPOUND>
CCCCCCCCCCCCCCCC(=O)C1=C(O)OC(CC)(CC)OC1=O

>  <Rf>
0.59

$$$$

* * *

molecular target: Tyrosine-protein phosphatase non-receptor type 1 (Homo sapiens, UniProt P18031); experiment: Inhibition of 6-His-N-terminal tagged human PTP1B expressed in Escherichia coli BL21 (DE3) cells assessed as pNP formation using pNPP as substrate incubated for 15 mins prior to substrate addition by plate reader analysis
Sequence (P18031 whole entry): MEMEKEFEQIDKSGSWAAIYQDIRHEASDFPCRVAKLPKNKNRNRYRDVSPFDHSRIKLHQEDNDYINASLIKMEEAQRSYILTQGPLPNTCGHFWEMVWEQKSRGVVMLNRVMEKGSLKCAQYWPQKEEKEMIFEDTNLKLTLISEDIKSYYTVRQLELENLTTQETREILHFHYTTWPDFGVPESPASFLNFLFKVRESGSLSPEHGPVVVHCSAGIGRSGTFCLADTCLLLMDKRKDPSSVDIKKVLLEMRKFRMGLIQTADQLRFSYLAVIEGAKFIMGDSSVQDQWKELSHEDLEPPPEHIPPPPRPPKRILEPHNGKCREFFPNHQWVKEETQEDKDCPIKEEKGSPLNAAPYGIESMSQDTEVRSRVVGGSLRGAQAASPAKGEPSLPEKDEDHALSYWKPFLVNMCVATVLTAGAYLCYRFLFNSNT
PARAMETER: log10(IC50) (log10 of the value in nM)

>  <COMPOUND>
CCCCCCCCCCCCCCCC(=O)C1=C(O)C(COC(=O)c2ccccc2C(=O)c2ccccc2)OC1=O (stereo unspecified)

>  <PARAMETER>
log10(IC50)

>  <TEST VALUE>
2.70

$$$$
>  <COMPOUND>
CCCCCCCCCCCCCCCC(=O)C1=C(O)C(COC(C)=O)OC1=O (stereo unspecified)

>  <PARAMETER>
log10(IC50)

>  <TEST VALUE>
2.60

$$$$
>  <COMPOUND>
CCCCCCCCCCCCCCCC(=O)C1=C(O)OC2(CCCC2)OC1=O

>  <PARAMETER>
log10(IC50)

>  <TEST VALUE>
2.90

$$$$
>  <COMPOUND>
CCCCCCCCCCCCCCCC(=O)C1=C(O)OC(CC)(CC)OC1=O

>  <PARAMETER>
log10(IC50)

>  <TEST VALUE>
3.04

$$$$
>  <COMPOUND>
CCCCCCCCCCCCCCCC(=O)C1=C(O)CC(CO)OC1=O (stereo unspecified)

>  <PARAMETER>
log10(IC50)

>  <TEST VALUE>
4.19

$$$$

* * *

Target sequence: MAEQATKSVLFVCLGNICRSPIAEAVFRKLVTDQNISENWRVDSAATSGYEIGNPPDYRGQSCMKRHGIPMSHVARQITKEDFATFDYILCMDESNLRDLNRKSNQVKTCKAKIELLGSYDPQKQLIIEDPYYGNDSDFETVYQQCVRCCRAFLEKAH
PARAMETER: IC50 (µM)

>  <COMPOUND>
CCCCCCCCCC(=O)C1=C(O)OC(C)(C)OC1=O

>  <BOUND SIGN>
>

>  <TEST VALUE>
100

$$$$
>  <COMPOUND>
CCCCCCCCCCCCCCCC(=O)C1=C(O)CC(COCc2ccccc2)OC1=O (stereo unspecified)

>  <BOUND SIGN>
>

>  <TEST VALUE>
100

$$$$
>  <COMPOUND>
CCCCCCCCCCCCCCCC(=O)C1=C(O)C(COC(=O)c2ccc(C(=O)c3ccccc3)cc2)OC1=O (stereo unspecified)

>  <BOUND SIGN>
=

>  <TEST VALUE>
3.8

$$$$
>  <COMPOUND>
C=C1OC(=O)C(C(=O)CCCCCCCCCCCCCCC)=C1O

>  <BOUND SIGN>
=

>  <TEST VALUE>
2.5

$$$$
>  <COMPOUND>
CCCCCCCCCCCCCCCC(=O)C1=C(O)OC(C)(C)OC1=O

>  <BOUND SIGN>
=

>  <TEST VALUE>
22

$$$$
>  <COMPOUND>
CCCCCCCCCCCCCCCC(=O)C1=C(O)C(COS(C)(=O)=O)OC1=O (stereo unspecified)

>  <BOUND SIGN>
=

>  <TEST VALUE>
3.3

$$$$

Source of measurements: ChEMBL document CHEMBL3425400
